src = patent US7541472B2

Attribute: IC50
# Test system: Septoria tritici
# PROCEDURE_DETAILS: microbe, parasite or virus in culture
# Format: cell-based
# CONDITION_SUMMARY: Zymoseptoria tritici, read-out: IC50 S. tritici

{"COMPOUND": "C=C(C(=O)OCc1ccc(Oc2ccccc2)cc1)C(O)c1nccs1 (centres unmarked) [Compound 30]", "MEASURED_PARAMETER": "IC50", "MEASUREMENT": "6 to 15 µM"}

Which value of IC50 has been reported for C=C(C(=O)OCc1ccc(Oc2ccccc2)cc1)C(O)c1cccnc1 (centres unmarked) [Compound 28] in the records? < 5 µM

* * *

# System: Septoria tritici
# PROCEDURE_DETAILS: microbe, parasite or virus in culture
# Format: cell-based
MEASURED_PARAMETER: IC50 S. tritici

{"MOLECULE": "C=C(C(=O)OCc1ccc(Cl)c(Cl)c1)C(O)c1nccs1 (stereo not shown)", "MEASUREMENT": "B (b)"}
{"MOLECULE": "O=C(OCc1cccc(C(F)(F)F)c1)/C(=C\\c1ccccc1)C(O)c1cccnc1 (stereo not shown)", "MEASUREMENT": "A (b)"}
{"MOLECULE": "C=C(C(=O)OCc1ccc(Oc2cccc(Cl)c2)cc1)C(O)c1cccnc1 (stereo not shown)", "MEASUREMENT": "A (d)"}
{"MOLECULE": "C=C(C(=O)Oc1ccc(Cl)cc1)C(O)c1cccnc1 (stereo not shown)", "MEASUREMENT": "A (c)"}
